# STUDY TARGET: huLTBP1 proTGFβ1 (Homo sapiens, UniProt P01137+Q14766)
# Sequence (P01137 30-390): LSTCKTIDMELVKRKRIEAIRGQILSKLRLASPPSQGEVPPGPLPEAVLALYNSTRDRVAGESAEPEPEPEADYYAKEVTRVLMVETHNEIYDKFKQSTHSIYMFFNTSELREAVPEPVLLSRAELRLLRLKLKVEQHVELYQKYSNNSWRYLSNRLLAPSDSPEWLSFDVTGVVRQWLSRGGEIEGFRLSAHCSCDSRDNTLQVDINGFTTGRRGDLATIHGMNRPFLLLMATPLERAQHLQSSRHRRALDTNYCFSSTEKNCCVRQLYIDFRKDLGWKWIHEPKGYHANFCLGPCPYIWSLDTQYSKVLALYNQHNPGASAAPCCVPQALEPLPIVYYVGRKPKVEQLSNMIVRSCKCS
# Sequence (Q14766 347-1721 limits assumed): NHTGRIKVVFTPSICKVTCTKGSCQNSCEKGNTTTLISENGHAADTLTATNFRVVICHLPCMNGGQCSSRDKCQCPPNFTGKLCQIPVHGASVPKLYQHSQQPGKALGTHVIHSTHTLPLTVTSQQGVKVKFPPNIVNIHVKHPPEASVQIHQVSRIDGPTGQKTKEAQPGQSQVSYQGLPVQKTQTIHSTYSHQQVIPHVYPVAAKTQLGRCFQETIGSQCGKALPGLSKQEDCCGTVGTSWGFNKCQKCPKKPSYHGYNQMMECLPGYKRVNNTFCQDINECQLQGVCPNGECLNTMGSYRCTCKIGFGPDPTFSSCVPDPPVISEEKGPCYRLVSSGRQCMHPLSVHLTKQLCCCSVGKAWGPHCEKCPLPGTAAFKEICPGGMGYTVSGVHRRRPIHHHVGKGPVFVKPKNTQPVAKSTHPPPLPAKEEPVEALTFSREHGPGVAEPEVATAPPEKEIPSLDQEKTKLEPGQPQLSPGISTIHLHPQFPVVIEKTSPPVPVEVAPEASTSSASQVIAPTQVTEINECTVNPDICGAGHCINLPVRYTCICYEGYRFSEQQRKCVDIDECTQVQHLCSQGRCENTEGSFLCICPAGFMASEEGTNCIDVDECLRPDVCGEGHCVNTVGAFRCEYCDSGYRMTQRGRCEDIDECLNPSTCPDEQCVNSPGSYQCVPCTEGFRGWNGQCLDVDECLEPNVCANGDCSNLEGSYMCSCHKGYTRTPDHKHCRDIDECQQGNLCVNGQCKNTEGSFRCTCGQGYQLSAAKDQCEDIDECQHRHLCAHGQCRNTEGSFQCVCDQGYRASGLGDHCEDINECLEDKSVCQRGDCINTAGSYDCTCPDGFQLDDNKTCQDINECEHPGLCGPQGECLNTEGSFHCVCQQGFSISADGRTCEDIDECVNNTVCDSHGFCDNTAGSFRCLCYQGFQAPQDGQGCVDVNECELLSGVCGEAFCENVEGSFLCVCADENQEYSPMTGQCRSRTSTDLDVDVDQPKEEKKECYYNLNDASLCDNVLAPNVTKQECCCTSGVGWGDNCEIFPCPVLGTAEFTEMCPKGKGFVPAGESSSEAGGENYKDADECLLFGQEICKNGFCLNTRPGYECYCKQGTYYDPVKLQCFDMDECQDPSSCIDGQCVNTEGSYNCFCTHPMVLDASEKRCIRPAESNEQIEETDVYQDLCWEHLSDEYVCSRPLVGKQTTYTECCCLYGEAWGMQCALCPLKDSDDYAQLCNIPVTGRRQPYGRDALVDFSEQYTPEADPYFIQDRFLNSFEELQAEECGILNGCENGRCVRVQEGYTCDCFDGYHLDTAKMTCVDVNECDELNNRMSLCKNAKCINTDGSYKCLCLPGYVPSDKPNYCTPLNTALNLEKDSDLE
# PROTOCOL DESCRIPTION: SPR (Biacore 8K) monovalent binding kinetics of Fabs, biotinylated antigen captured
# Parameters: biotin (complex biotinylated)
# CONDITION DETAILS: Fab, huLTBP1 proTGFβ1; SR-AB42-HuFab average of five, SR-AB63-HuFab average of four replicate experiments
# Description: A Biacore 8K system was employed to determine the monovalent binding affinity and the kinetic parameters for antigen binding of test antibodies. Association and dissociation kinetics of Fab fragments SR-AB42-HuFab, SR-AB63-HuFab and SR-AB43-HuFab to antigen complexes were measured, and resulting ka, kd and KD are provided below. Briefly, the binding kinetics were evaluated by surface plasmon resonance using Biacore 8K (GE Healthcare). […]
For each of the molecules below, state its ka.
Report the figure along with its unit, number first.

So, SR-AB49-HuFab (antibody, V domains shown) VH: QVQLVESGGGVVQPGRSLRLSCAASGFTFRSYVMHWVRQAPGKGLEWVAVISHEGSGKYYADSVKGRFTISRDNSKNTLYLQMNSLRAEDTAVYYCARPRIAARRGGFGSWGQGTLVTVSS VL: NFMLTQPHSVSESPGKTVTISCTRSSGNIDYNYVQWYQQRPGSSPTTVIYEDNVRPSGVPDRFSGSIDSSSNSASLTISGLKTEDEADYYCQGYDWDTQGVVFGGGTKLTVL ? Its ka was 809000 M⁻¹ s⁻¹

ka reported for this molecule SR-AB42-HuFab: human Fab fragment of SR-AB42 used in SPR (antibody, V domains shown) VH: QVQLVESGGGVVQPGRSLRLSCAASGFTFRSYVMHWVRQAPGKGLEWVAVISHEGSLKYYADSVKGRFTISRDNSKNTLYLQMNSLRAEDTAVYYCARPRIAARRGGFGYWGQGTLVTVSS VL: NFMLTQPHSVSESPGKTVTISCTRSSGNIDNNYVQWYQQRPGSSPTTVIYEDNQRPSGVPDRFSGSIDSSSNSASLTISGLKTEDEADYYCQSYDYDTQGVVFGGGTKLTVL : 543000 M⁻¹ s⁻¹

// ka value for SR-AB50-HuFab (antibody, V domains shown) VH: QVQLVESGGGVVQPGRSLRLSCAASGFTFRSYVMHWVRQAPGKGLEWVAVISHEGSGKYYADSVKGRFTISRDNSKNTLYLQMNSLRAEDTAVYYCARPRIAARRGGFGTWGQGTLVTVSS VL: NFMLTQPHSVSESPGKTVTISCTRSSGNIDYNYVQWYQQRPGSSPTTVIYEDNVRPSGVPDRFSGSIDSSSNSASLTISGLKTEDEADYYCQSYDSDNQRVVFGGGTKLTVL : 3.31e+06 M⁻¹ s⁻¹

Sure, the documented ka for SR-AB52-HuFab (antibody, V domains shown) VH: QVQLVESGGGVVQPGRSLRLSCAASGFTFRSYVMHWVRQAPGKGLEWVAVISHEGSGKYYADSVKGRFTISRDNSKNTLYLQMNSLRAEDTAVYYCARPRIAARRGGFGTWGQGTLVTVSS VL: NFMLTQPHSVSESPGKTVTISCTRSSGNIDYNYVQWYQQRPGSSPTTVIYEDNVRPSGVPDRFSGSIDSSSNSASLTISGLKTEDEADYYCQSYDYDTQGVVFGGGTKLTVL is 2.5e+06 M⁻¹ s⁻¹
